Molecular target: T1, PUF4 RNA-binding domain (Saccharomyces cerevisiae, UniProt P25339 537-888)
T1 sequence: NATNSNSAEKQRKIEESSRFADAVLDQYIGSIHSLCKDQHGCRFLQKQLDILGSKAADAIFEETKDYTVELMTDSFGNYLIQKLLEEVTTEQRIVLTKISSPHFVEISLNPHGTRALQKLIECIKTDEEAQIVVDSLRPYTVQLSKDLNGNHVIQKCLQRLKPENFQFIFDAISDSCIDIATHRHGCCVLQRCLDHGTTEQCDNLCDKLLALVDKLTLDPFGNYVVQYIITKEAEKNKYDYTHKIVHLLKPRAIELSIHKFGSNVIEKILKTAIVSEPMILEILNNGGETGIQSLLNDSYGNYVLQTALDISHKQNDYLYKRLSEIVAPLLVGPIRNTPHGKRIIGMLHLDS
Assay: Mg; RNA-MaP; 20 mM Na-HEPES pH 7.4, 30 mM KOAc, 0.75 mM MgCl2, 0.1% Tween-20, 5% glycerol, 0.1 mg/mL BSA, 2 mM DTT; 25 C; 0.0125-409.6 nM protein
Details: tags: N-His6-TEV cleaved; C-SNAP kept, Cy3B-labelled; label: tethered on chip by stalled RNA polymerase
result type: pKd
One number for each entry, as −log10 of the molar value.

// below: answered binders
Ie_S2_P4E.1_K4.1_C4.1_H4.1_A4.1_[+5TTCC]_F4.1_T4.1 (ssRNA) RNA: UUUGAUUAAUAUGAUAUCGUUCUUUCUUGUAUUUCCAUUAUUCUUUCUCGAUAUCAUAUUAAUCUUU: 7.32
Id_ii_S4_P3E.3_K3.2_C3.2_[C-2A]_H3.2_A3.1_F3.1_T3.2_[T9A] (ssRNA) RNA: UUUGACAACUGAUCGUUCUUUCUAUUAUAUAUAAAUUCUUUCUCGAUCAGUUGUCUUU: 6.08
Id_ii_S4_P5E.4_K5.3_C5.2_[C-2A]_[T-1A]_H5.3_A5.1_F5.1_T5.2 (ssRNA) RNA: UUUGACAACUGAUCGUUCUUUCUAAACACUUAUUAUAUUCUUUCUCGAUCAGUUGUCUUU: 6.07

Q. Form field: reported pKd of Id_iii_S2_P4E.9_K4.5_C4.3_H4.1_A4.2_F4.2_T4.2_[G10C] (ssRNA) RNA: UUUGAUUAAUAUGAUAUCGUUCUUUCUUCUUGUAUUUAACUUUCUUUCUCGAUAUCAUAUUAAUCUUU
A. 7.11

Data provenance: paper PMC9352680
